- Measurement target: Mannose-6-phosphate isomerase (Homo sapiens)
- Assay remarks: MPI inhibition at elevated mannose 6-phosphate – biochemical, fluorescence intensity, high mannose 6-phosphate, primary screen (AID 1220)
- Condition notes: recombinant PMI enzyme, coupled fluorescence intensity; at 20 µM; stronger effect = higher value
Out of some 190,000 compounds screened, about 1,300 (0.68%) were called active. The list comes from a sample in which actives are over-represented; it also holds close analogues and randomly drawn compounds.
inhibition overview
Reported endpoint: inhibition (%)

INSERT INTO results (molecule, reported_endpoint, meas_value) VALUES
  ('O=C(O)c1ccc(NS(=O)(=O)c2ccc3c(c2)C(=O)c2ccccc2C3=O)cc1', 'inhibition', 2.7),
  ('O=C1S/C(=C\c2ccc(N3CCOCC3)o2)C(=O)N1Cc1c(F)cccc1Cl', 'inhibition', 56.3),
  ('Cc1ccc(C)n1-c1ccc(C(=O)O)cc1', 'inhibition', 0.2),
  ('Cc1cccc(C)c1NS(=O)(=O)c1ccc2c(c1)C(=O)c1ccccc1C2=O', 'inhibition', 21),
  ('COc1ccc(NC(=O)CSc2ccc(F)cc2)cc1S(=O)(=O)N1CCCCC1', 'inhibition', 8.6),
  ('Cc1ccccc1NC(=S)N1CCOCC1', 'inhibition', -2.1),
  ('O=C1S/C(=C/c2ccc(N3CCOCC3)o2)C(=O)N1Cc1c(F)cccc1Cl', 'inhibition', 5.6),
  ('Oc1ccc(-c2csc(-c3c[nH]c4ccccc34)n2)c(O)c1', 'inhibition', -4.2);

* * *

- Measurement target: Mannose-6-phosphate isomerase (Homo sapiens)
- Assay remarks: MPI inhibition at elevated mannose 6-phosphate – biochemical, fluorescence intensity, high mannose 6-phosphate, primary screen (AID 1220)
- Condition notes: recombinant PMI enzyme, coupled fluorescence intensity; at 20 µM; stronger effect = higher value
The whole screen tested about 190,000 compounds, of which about 1,300 (0.68%) were called active. Only a selection was taken, and actives are over-represented in it overall.
Mark Not satisfied for inhibition values under -20%, and Satisfied for everything at or above.

INSERT INTO results (molecule, class_name) VALUES
  ('CCc1ccc(O)c(N=Cc2cccc(C)c2O)c1', 'Satisfied'),
  ('CC1(N2CCOCC2)C(=O)c2ccccc2C1=O', 'Satisfied'),
  ('Cc1nn(-c2ccccc2)c(C)c1/C=C/C(=O)OCC(=O)NC1CCS(=O)(=O)C1 (stereo not given)', 'Satisfied'),
  ('N#CCCn1c2ccccc2c2nc3ccccc3nc21', 'Not satisfied'),
  ('N#CCn1c2ccccc2c2nc3ccccc3nc21', 'Satisfied');

* * *

- Measurement target: Mannose-6-phosphate isomerase (Homo sapiens)
- Assay remarks: MPI inhibition at elevated mannose 6-phosphate – biochemical, fluorescence intensity, high mannose 6-phosphate, primary screen (AID 1220)
- Condition notes: recombinant PMI enzyme, coupled fluorescence intensity; at 20 µM
Among all 190,000 compounds or so, about 1,300 (0.68%) were called active. Rule as the data show it: active = inhibition above about 50%; inactive = the rest. The sample holds actives, similar compounds and a random draw of the others, so the mix is not that of the screen.
Possible outcomes: T = active, F = inactive

INSERT INTO assay_data (compound, measurement_target, class_name) VALUES
  ('Cn1c(CNc2ccccc2O)nc2ccccc21', 'Mannose-6-phosphate isomerase (Homo sapiens)', 'T'),
  ('O=C(NCC(F)(F)F)Nc1ccccn1', 'Mannose-6-phosphate isomerase (Homo sapiens)', 'F'),
  ('CN1C(=O)CC(Nc2cccc3cccc(N)c23)C1=O (stereo not drawn)', 'Mannose-6-phosphate isomerase (Homo sapiens)', 'F');

Reference for the values: PubChem BioAssay AID1220
